Biological target: Indoleamine 2,3-dioxygenase 1 (Homo sapiens)
Sequence (P14902 whole entry): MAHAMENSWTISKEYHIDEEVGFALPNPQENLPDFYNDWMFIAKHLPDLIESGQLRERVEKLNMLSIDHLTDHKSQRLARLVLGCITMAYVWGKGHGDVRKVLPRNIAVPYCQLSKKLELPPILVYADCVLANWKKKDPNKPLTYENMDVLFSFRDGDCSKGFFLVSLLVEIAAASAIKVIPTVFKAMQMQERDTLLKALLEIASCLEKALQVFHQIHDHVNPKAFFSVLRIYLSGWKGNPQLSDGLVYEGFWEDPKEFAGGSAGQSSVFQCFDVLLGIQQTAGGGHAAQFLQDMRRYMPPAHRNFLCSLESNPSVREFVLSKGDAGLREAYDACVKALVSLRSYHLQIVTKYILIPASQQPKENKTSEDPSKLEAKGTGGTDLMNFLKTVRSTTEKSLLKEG
Assay: Inhibition of IFNgamma-stimulated IDO1 in human MDA-MB-231 cells preincubated for 4 hrs followed by tryptophan addition measured after 5 hrs by methylene blue dye based spectrophotometric method
Format: cell-based
Field 'label' (enum: satisfied / not satisfied). Set to satisfied when EC50 is strictly under 500 nM; else not satisfied.

>  <COMPOUND>
CC(=O)CC(=O)/C=C1\C(=O)Nc2ccc(Cl)cc21

>  <CATEGORY>
satisfied

$$$$
>  <COMPOUND>
CC(=O)N[C@@H](CC1C(=O)Nc2ccccc21)C(=O)O (mixture of isomers)

>  <CATEGORY>
satisfied

$$$$
>  <COMPOUND>
CC(=O)/C=C1\C(=O)Nc2ccc(Cl)cc21

>  <CATEGORY>
satisfied

$$$$
>  <COMPOUND>
O=C1Nc2ccccc2/C1=N/Nc1ccc(Cl)cc1

>  <CATEGORY>
satisfied

$$$$
>  <COMPOUND>
O=C(N[C@@H](CC1C(=O)Nc2ccccc21)C(=O)O)OCc1ccccc1 (stereo partly specified)

>  <CATEGORY>
not satisfied

$$$$
